target: Recombinant human glyoxalase I (GLO1) (Homo sapiens, UniProt Q04760); test: Human Glyoxalase 1 enzyme assay; assay type: biochemical; details: SAR statement
Sequence (Q04760 2-184 limits assumed): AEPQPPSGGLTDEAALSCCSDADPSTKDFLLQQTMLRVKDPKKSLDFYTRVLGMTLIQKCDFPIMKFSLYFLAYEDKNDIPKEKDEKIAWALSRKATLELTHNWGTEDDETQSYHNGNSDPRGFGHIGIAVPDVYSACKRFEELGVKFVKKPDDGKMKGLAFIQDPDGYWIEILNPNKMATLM
Recorded metric: GLO1 inhibition compared with 8-MSQ, in words

>  <Compound structure string>
CS(=O)(=O)Nc1ccc(-c2cncnc2)c2cccnc12

>  <Measured>
not well tolerated

$$$$
>  <Compound structure string>
CS(=O)(=O)Nc1ccc(-c2ccncc2)c2cccnc12

>  <Measured>
not well tolerated

$$$$
>  <Compound structure string>
COc1ccccc1S(=O)(=O)Nc1cccc2cccnc12

>  <Measured>
not tolerated

$$$$
>  <Compound structure string>
CS(=O)(=O)Nc1ccc(N2CCCCC2)c2cccnc12

>  <Measured>
not well tolerated

$$$$
>  <Compound structure string>
N#Cc1ccccc1S(=O)(=O)Nc1cccc2cccnc12

>  <Measured>
not tolerated

$$$$

What does the record list as GLO1 inhibition compared with 8-MSQ, in words for CS(=O)(=O)Nc1ccc(N2CCOCC2)c2cccnc12 ? not well tolerated

Data provenance is paper PMC6467756.
